Experiment: A CellTox Green Cytotoxicity Assay to monitor cytotoxicity in HEK293 cells - 32 hour (AID 1224881); note: nearly all actives have a fitted effect of over 40% in size
Details: CellTox Green fluorescence; series mostly up to 76.8 µM
Inconclusive results are not listed. Calls of active or inactive are those of the source. Calls come from the whole dose curve; as a rule, active = well fitted activation curve with a large enough effect in the repeat runs; inconclusive = weak or mixed curves; inactive = flat fitted curve, though single readings scatter.
reported.endpoint: outcome

Examples from the recorded data:
molecule	outcome
COc1ccc(-n2nc(C(F)F)cc2-c2ccc(S(C)=O)cc2)cc1 (stereo not drawn)	inactive
O=C(O)CNC(=O)c1ccccc1I	inactive
O=[N+]([O-])c1ccc2ncccc2c1	inactive
CC(=O)N[C@@H](Cc1ccc(O)cc1)C(=O)O	inactive
O=C(O)c1cccc(C[C@@H]2COc3ccc(OCc4nc5cc(F)ccc5s4)cc3[C@@H]2O)c1	inactive
Cc1ccc(Nc2c(F)cccc2Cl)c(CC(=O)O)c1	inactive
COc1cc(NCc2ccc3nc(N)nc(N)c3c2C)cc(OC)c1OC	inactive
COc1ccc(N)c([N+](=O)[O-])c1	inactive

Fill in: outcome of O=C1CC[C@@H](C(=O)O)N1 is ___
inactive

Now try COc1cc(OC)c2ccc(=O)oc2c1 .
inactive

Another: COC(=O)C1=C(C)NC(C)=C(C(=O)OC(C)(C)CN(C)CCC(c2ccccc2)c2ccccc2)C1c1cccc([N+](=O)[O-])c1 (stereo not drawn)
inactive

Item: O=CNNC=O
inactive

Try the molecule Cc1c[nH]c2ccccc12
inactive
